Recorded melting point for the following compounds

Completed entries (count: 4):
compound="C[C@@H]1O[C@](/C=C/C2CC2)(C(F)(F)F)c2c(ccc3c2OCO3)NC1=O (relative stereo)" reported="236 to 237 °C"
compound=CCn1nccc1Nc1cc(OC)ccc1C(=O)O reported="130 to 135 °C"
compound=Cc1cc(N2CCC(CN3CCN(S(=O)(=O)c4ccc(Br)cc4)CC3)CC2)nc(C)n1 reported="73 to 74 °C"
compound=COc1ncnc(OC)c1NC(=O)c1cccs1 reported="198 to 200 °C"

Query: Request the reported melting point associated with `CC(C)n1c(SC(F)(F)C(F)F)nc(-c2ccc(F)cc2)c1-c1ccc(F)cc1`
Response: 94 to 103 °C

Query: Request the reported melting point associated with `COc1cc(O)c(Cl)c2cc(-c3ccc(O)cc3)oc12`
Response: 176 to 177 °C

Query: Request the reported melting point associated with O=C(O)C(O)N1C(=O)CCN1c1ccccc1 (stereo unspecified)
Response: 127 to 129 °C

Query: Request the reported melting point associated with `COc1ccc(-c2cccc(S(=O)(=O)N3CCC(Nc4nc(Nc5cccc(C(F)(F)F)c5)nc(OCC(F)(F)F)n4)CC3)c2)cc1`
Response: 180 to 182 °C

Query: Request the reported melting point associated with `O=C(N[C@@H](CO)C(=O)N1CC(C(=O)O)C1)OCc1ccccc1`
Response: 138 to 143 °C

Query: Request the reported melting point associated with CCOCC(=NO)C(C)(C)NOC(CNC(C)(C)C(C)=NO)Cn1ccnc1[N+](=O)[O-] (stereo unspecified)
Response: 129 to 130 °C

Query: Request the reported melting point associated with `COc1ccc2c(-c3c(-c4ccccn4)nn4c3CCCCC4)ccnc2c1`
Response: 127 to 129 °C

Query: Request the reported melting point associated with `CCn1cc(C)c2cnc(NC(=O)c3ccc(C(C)(C)O)cc3)cc21`
Response: 198 to 200 °C

Query: Request the reported melting point associated with O=C(O)C1(O)CCc2ccccc2C1 (single isomer, unassigned; (-))
Response: 134 to 135 °C

Query: Request the reported melting point associated with `Cc1ncnc(Cl)c1C`
Response: 45 to 47 °C

Query: Request the reported melting point associated with O=C1N(c2ccccc2)c2ccccc2C1(Cc1ccccc1)Cc1ccncc1 (stereo unspecified)
Response: 127 to 128 °C

Query: Request the reported melting point associated with `CS(=O)(=O)NCCn1c2ccccc2c(=O)c2ccccc21`
Response: 226 to 227 °C

Query: Request the reported melting point associated with `CN=C(C)c1cc(Oc2ccc(C(F)(F)F)cc2Cl)ccc1[N+](=O)[O-]`
Response: 133 to 137 °C

Query: Request the reported melting point associated with CNCC(O)c1ccc(Br)cc1 (stereo unspecified)
Response: 91.5 to 93.7 °C
